Data origin, for the record: patent US20060140932A1

target: human IL-1β (human, UniProt P01584 117-269)
assay.comment: cell-based or functional assay
property.measured: IC50, T1165.17 cell proliferation assay (human IL-1β 0.3 pM)
Numbers only, in pM.

Example cases with answers are listed next.
INSERT INTO assay_data (binder, reading) VALUES
  ('U43 (IgG1) (antibody, V domains shown, humanized, IgG1 kappa) VH: QVQLVQSGAEVKKPGSSVKVSCKASGYTFDRYWIEWVRQAPGQGLEWMGEILPGSGDINYNEKFKGRVTITADKSTSTAYMELSSLRSEDTAVYYCARMYYDYDQGFSLWGQGTLVTVSS VL: DIQMTQSPSSLSASVGDRVTITCKASQDIDRFLSWFQQKPGKAPKSLIYRVKRLVDGVPSRFSGSGSGTDFTLTISSLQPEDFATYYCVQYDEFPYTFGGGTKVEIKR', 4),
  ('W18 (IgG1) (antibody, V domains shown, humanized, IgG1 kappa) VH: QVQLVQSGAEVKKPGSSVKVSCKASGYTFDRYWIEWVRQAPGQGLEWMGEILPGSGTINYNEKFKGRVTITADKSTSTAYMELSSLRSEDTAVYYCARMYYDYDQGFDNWGQGTLVTVSS VL: DIQMTQSPSSLSASVGDRVTITCKFSQDIDRFLSWFQQKPGKAPKSLIYRVKRLVDGVPSRFSGSGSGTDFTLTISSLQPEDFATYYCVQYDEFPYTFGGGTKVEIKR', 2);

Hello, I would appreciate it if you could give IC50, T1165.17 cell proliferation assay (human IL-1β 0.3 pM) for each entry below.
1. Mu007 (antibody, V domains shown) VH: QVQLQQSGAELMKPGASVKISCKATGYTFSRYWIEWIKQRPGHGLEWIGEILPGNGNINYNEKFKGKATISADSSSETAYMQLSSLSSEDSAVYYCSTIYYDYDQGFTYWGQGTLVTVSA VL: DIKMTQSPSSMYASLGERVTITCKASQDIDRYLSWFQQKPGKSPKTLIYRVKRLVDGVPSRFSGSASGQDYSLTISSLQYEDMGIYYCLQYDEFPYTFGGGTKLEIK
2. W13 (IgG1) (antibody, V domains shown, humanized, IgG1 kappa) VH: QVQLVQSGAEVKKPGSSVKVSCKASGYTFDRYWIEWVRQAPGQGLEWMGEILPGSGDINYNEKFKGRVTITADKSTSTAYMELSSLRSEDTAVYYCARMYYDYDQGFDYWGQGTLVTVSS VL: DIQMTQSPSSLSASVGDRVTITCKFSQDIDRFLTWFQQKPGKAPKSLIYRVKRLVDGVPSRFSGSGSGTDFTLTISSLQPEDFATYYCIQYDEFPYTFGGGTKVEIKR
3. W20 (IgG1) (antibody, V domains shown, humanized, IgG1 kappa) VH: QVQLVQSGAEVKKPGSSVKVSCKASGYTFDRYWIEWVRQAPGQGLEWMGEILPGSGDINYNEKFKGRVTITADKSTSTAYMELSSLRSEDTAVYYCARMYYDYDQGFDYWGQGTLVTVSS VL: DIQMTQSPSSLSASVGDRVTITCKFSQDIDRFLSWFQQKPGKAPKSLIYRVKRLVDGVPSRFSGSGSGTDFTLTISSLQPEDFATYYCVQYDEFPYTFGGGTKVEIKR

stdout:
[20.6, 1.2, 1.2]
